System: Pseudomonas putida
Assay: Antibacterial activity against Pseudomonas putida assessed as growth inhibition at 1 mg/ml by cup-plate method
Type: functional
Conditions: read-out: IZ
Property name: zone of inhibition at 1000 µg/mL (mm)
Return type: number; implicit unit mm.

Example cases with answers are listed next.
CC1=NN(C(=O)n2c(=O)c3ccccc3c3c4cc(Cl)ccc4[nH]c32)C(=O)C1	15
CN[C@@H]1[C@H](O[C@H]2[C@H](O[C@H]3[C@H](O)[C@@H](O)[C@H](N=C(N)N)[C@@H](O)[C@@H]3N=C(N)N)O[C@@H](C)[C@]2(O)C=O)O[C@@H](CO)[C@H](O)[C@H]1O [STREPTOMYCIN]	22
Cc1ccc2[nH]c3c(c2c1)c1ccccc1c(=O)n3C(=O)n1nc(C)cc1C	10
Cc1ccc2[nH]c3c(c2c1)c1ccccc1c(=O)n3C(=O)n1nc(-c2ccccc2)cc1-c1ccccc1	13
CC1=NN(C(=O)n2c(=O)c3ccccc3c3c4cc(C)ccc4[nH]c32)C(=O)C1	18
COc1ccc2[nH]c3c(c2c1)c1ccccc1c(=O)n3C(=O)N1N=C(C)CC1=O	10
O=C(n1nc(-c2ccccc2)cc1-c1ccccc1)n1c(=O)c2ccccc2c2c3cc(Cl)ccc3[nH]c21	18

Briefly, zone of inhibition at 1000 µg/mL measured for `Cc1ccc2[nH]c3c(c2c1)c1ccccc1c(=O)n3-c1n[nH]c(=S)o1` : 19

###

Tested on: Aspergillus niger
Assay: Antifungal activity against Aspergillus niger assessed as growth inhibition at 1 mg/ml by cup-plate method
Format: functional
Settings: read-out: IZ
In this section we review reported zone of inhibition at 1000 µg/mL values for a set of compounds.
Return type: number; implicit unit mm.

Example cases with answers are listed next.
CC1=NN(C(=O)n2c(=O)c3ccccc3c3c4cc(Cl)ccc4[nH]c32)C(=O)C1	6
O=c1c2ccccc2c2c3cc(Cl)ccc3[nH]c2n1-c1n[nH]c(=S)o1	17
Cc1ccc2[nH]c3c(c2c1)c1ccccc1c(=O)n3-c1n[nH]c(=S)o1	8
Cc1cc(C)n(C(=O)n2c(=O)c3ccccc3c3c4cc(Cl)ccc4[nH]c32)n1	16
CC1=NN(C(=O)n2c(=O)c3ccccc3c3c4cc(C)ccc4[nH]c32)C(=O)C1	12
COc1ccc2[nH]c3c(c2c1)c1ccccc1c(=O)n3C(=O)n1nc(C)cc1C	10
COc1ccc2[nH]c3c(c2c1)c1ccccc1c(=O)n3C(=O)N1N=C(C)CC1=O	9

Briefly, zone of inhibition at 1000 µg/mL measured for `COc1ccc2[nH]c3c(c2c1)c1ccccc1c(=O)n3-c1n[nH]c(=S)o1` : 10

Data provenance: ChEMBL document CHEMBL3045682
